- Target Or System: UniProt:P11387
- Sequence (P11387 whole entry): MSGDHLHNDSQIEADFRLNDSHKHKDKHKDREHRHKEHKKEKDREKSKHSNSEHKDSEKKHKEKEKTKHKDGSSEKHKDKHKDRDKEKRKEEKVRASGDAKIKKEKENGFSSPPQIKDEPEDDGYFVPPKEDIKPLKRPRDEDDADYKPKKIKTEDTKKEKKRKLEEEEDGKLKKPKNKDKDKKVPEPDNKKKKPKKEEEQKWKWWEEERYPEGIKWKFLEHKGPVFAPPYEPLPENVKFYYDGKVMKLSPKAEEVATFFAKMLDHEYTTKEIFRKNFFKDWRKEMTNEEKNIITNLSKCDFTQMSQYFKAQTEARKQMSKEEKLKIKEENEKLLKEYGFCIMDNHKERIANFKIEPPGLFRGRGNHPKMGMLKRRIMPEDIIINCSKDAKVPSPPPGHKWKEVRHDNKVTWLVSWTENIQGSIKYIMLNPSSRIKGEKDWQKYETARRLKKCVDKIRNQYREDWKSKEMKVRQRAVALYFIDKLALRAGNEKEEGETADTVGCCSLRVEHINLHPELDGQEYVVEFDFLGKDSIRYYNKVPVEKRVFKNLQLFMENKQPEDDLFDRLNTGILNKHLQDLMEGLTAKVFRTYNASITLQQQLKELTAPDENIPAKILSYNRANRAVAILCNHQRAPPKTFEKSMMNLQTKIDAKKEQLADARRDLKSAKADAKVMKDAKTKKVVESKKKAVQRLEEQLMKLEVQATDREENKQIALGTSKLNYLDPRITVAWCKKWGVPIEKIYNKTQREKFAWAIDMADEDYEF
- Measurement Notes: Inhibition of purified Topo 1 (unknown origin)-mediated supercoiled pBR322 DNA cleavage at 12.5 uM after 15 mins by agarose gel electrophoresis
Active and inactive are the calls of the source. No cut-off for these calls is given here.
// classify into y = active, n = inactive

// below: answered compounds
>  <Compound>
CCCCOC1CCc2c(ccc3nc4c(cc23)Cn2c-4cc3c(c2=O)COC(=O)[C@]3(O)CC)O1 (stereo partly specified)

>  <Target Or System>
UniProt:P11387

>  <Assigned Category>
n

$$$$
>  <Compound>
CC[C@@]1(O)C(=O)OCc2c1cc1n(c2=O)Cc2cc3cc(O)ccc3nc2-1 [HYDROXYCAMPTOTHECIN]

>  <Target Or System>
UniProt:P11387

>  <Assigned Category>
y

$$$$
>  <Compound>
CC[C@@]1(O)C(=O)OCc2c1cc1n(c2=O)Cc2cc3c(CSCCC(=O)O)c(O)ccc3nc2-1

>  <Target Or System>
UniProt:P11387

>  <Assigned Category>
n

$$$$
>  <Compound>
CC[C@@]1(O)C(=O)OCc2c1cc1n(c2=O)Cc2cc3c4c(ccc3nc2-1)O[C@@H]1OCC[C@H]1C4

>  <Target Or System>
UniProt:P11387

>  <Assigned Category>
n

$$$$

Q. Test call for this compound, please: CC[C@@]1(O)C(=O)OCc2c1cc1n(c2=O)Cc2cc3c4c(ccc3nc2-1)OC(O)CC4 (stereo partly specified)
A. y

Q. # repeat for "CC[C@@]1(O)C(=O)OCc2c1cc1n(c2=O)Cc2cc3c(CSC(C)C)c(O)ccc3nc2-1"
A. y
